TESTED SYSTEM: histamine 3 receptor (H3R) (Homo sapiens)
Sequence (Q9Y5N1 whole entry): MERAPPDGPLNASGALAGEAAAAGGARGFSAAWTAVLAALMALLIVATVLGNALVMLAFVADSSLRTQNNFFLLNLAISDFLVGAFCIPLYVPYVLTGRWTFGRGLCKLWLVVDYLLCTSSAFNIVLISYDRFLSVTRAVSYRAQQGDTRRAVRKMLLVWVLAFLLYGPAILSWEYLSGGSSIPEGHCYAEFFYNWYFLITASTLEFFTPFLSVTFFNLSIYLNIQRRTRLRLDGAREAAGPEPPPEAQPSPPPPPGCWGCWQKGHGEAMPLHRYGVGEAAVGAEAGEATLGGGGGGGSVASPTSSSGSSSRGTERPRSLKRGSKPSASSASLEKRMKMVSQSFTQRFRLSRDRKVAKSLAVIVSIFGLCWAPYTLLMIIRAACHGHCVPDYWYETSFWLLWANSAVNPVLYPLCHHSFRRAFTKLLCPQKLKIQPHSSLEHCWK
MEASURE: Ki (nM)
Just the number in nM, nothing appended.

Enquiry: Which measured Ki belongs to `CC(C)N1CCC(Oc2ccc3c(c2)cc(C(=O)N2CCC(F)(F)CC2)n3-c2ccnc(Cl)c2)CC1` , tested on histamine 3 receptor (H3R) (Homo sapiens)?
Return: 2
